# Assay comment: collision cross section in nitrogen (drift tube, single-field); higher = larger gas-phase ion size;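 also: chemical standards at 10 µM analysed by drift tube IMS-QTOF MS in about 3.95 torr nitrogen, mean of duplicate injections differing ≤1%, mass error below 10 ppm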
# Recorded conditions: ion type: [M+Na]; ion source: ESI; ion mode: Positive
Where a name gives a salt, the structure may show the parent alone.
Measurement name: collision cross section in nitrogen (Å²)
The reply should contain only the number, in Å².

Below: 4 molecules and their reported collision cross section in nitrogen.
[[record]]
molecule = "CN(C)C(=O)Nc1ccc(Oc2ccc(Cl)cc2)cc1"
measurement_name = "collision cross section in nitrogen"
numeric_readout = 183.1

[[record]]
molecule = "CCCCCCCCCCCCCC(=O)OC(CO)CO"
measurement_name = "collision cross section in nitrogen"
numeric_readout = 183.7

[[record]]
molecule = "COC(=O)CCCCCCCC(=O)OC [Dimethyl nonanedioate]"
measurement_name = "collision cross section in nitrogen"
numeric_readout = 155.6

[[record]]
molecule = "O=C1c2c(O)ccc(Nc3ccc(CCO)cc3)c2C(=O)c2c([N+](=O)[O-])ccc(O)c21"
measurement_name = "collision cross section in nitrogen"
numeric_readout = 189.9


Inquiry: # get_value(readout='collision cross section in nitrogen', item= CC(C)NCC(O)COc1cccc2ccccc12 (stereo not given) [Propranolol hydrochloride] )
Reply text: 167.7
